Please respond with reported normalized growth for every item in the list.
Assay: chemical genetic growth profiling, strain panel (AID 1159580);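 also: tested at 20 µM; growth read once vehicle control cultures reached saturation at 30 °C; 1 = growth at the plate median or of vehicle wells; lower values mean less growth of the strain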
Details: S. cerevisiae deletion strains, growth OD, locus YOR070C, strain gyp1, active compounds read low
Out of some 5,500 compounds screened, about 2,000 (36%) were called active. Inconclusive results (about 18%) are left out. Some of the results follow.
Just the number, please, no unit attached.

// sample OCCN1C[C@@H](O)[C@@H](O)C(O)C1CO (some centres not stated) , its normalized growth was 0.997

// sample S=c1nc[nH]c2nc[nH]c12 , its normalized growth was 1.01

// sample CCCCCCCCCCCCCCCC(=O)OC/C=C(C)/C=C/C=C(C)/C=C/C1=C(C)CCCC1(C)C , its normalized growth was 1.01

// sample Oc1cc(Cl)ccc1Oc1ccc(Cl)cc1Cl , its normalized growth was 0.0564

// sample C=C(C)C1CNC(C(=O)O)C1CC(=O)O (configuration not stated) , its normalized growth was 0.985

// sample COc1cc(/C=C/C(=O)/C=C(O)/C=C/c2ccc(O)c(OC)c2)ccc1O , its normalized growth was 0.416

// sample COc1ccc(OC)c(C(O)C(C)N)c1 (configuration not stated) , its normalized growth was 0.999

// sample CC1=C(/C=C/C(C)=C/C=C/C(C)=C/C=C/C=C(C)/C=C/C=C(C)/C=C/C(=O)[C@]2(C)C[C@@H](O)CC2(C)C)C(C)(C)C[C@H](O)C1 , its normalized growth was 1.02

// sample CCOC(=O)[C@H](CCc1ccccc1)N[C@H]1CCc2ccccc2N(CC(=O)O)C1=O , its normalized growth was 0.982

// sample CC(N)C(=O)OC(C)(C)Cc1ccc(Cl)cc1 (configuration not stated) , its normalized growth was 1.02

// sample COc1cc(O)c(C(=O)/C=C/c2ccc(O)c(OC)c2)c(OC)c1 , its normalized growth was 0.962

// sample CCOC(=O)C(C)(C)Oc1ccc(Cl)cc1 , its normalized growth was 0.995

// sample COc1ccc2c(c1OC)C(=O)O[C@@H]2[C@H]1c2cc3c(cc2CCN1C)OCO3 , its normalized growth was 0.984

// sample CCCCCCNC(=O)n1cc(F)c(=O)[nH]c1=O , its normalized growth was 0.958

// sample COc1ccc2c(c1OC)C(=O)O[C@H]2[C@H]1c2cc3c(cc2CCN1C)OCO3 , its normalized growth was 0.995

// sample COc1cc(O)c(C(=O)/C=C/c2ccc(OC)c(O)c2)c(OC)c1 , its normalized growth was 0.895

// sample CC(C)OC(=O)C(C)(C)Oc1ccc(C(=O)c2ccc(Cl)cc2)cc1 , its normalized growth was 0.971

// sample COc1cc2c(cc1OC)Cc1cc(OC)c(OC)cc1Cc1cc(OC)c(OC)cc1C2 , its normalized growth was 1.03

// sample CC(=O)NC1SCCC1=O (configuration not stated) , its normalized growth was 0.986

// sample C=C1C2CC[C@H]3[C@]4(C)C[C@H](OC5OC(CO)C(OS(=O)(=O)O)C(OS(=O)(=O)O)C5OC(=O)CC(C)C)C[C@@H](C(=O)O)[C@H]4CC[C@]3(C2)[C@H]1O (some centres not stated) , its normalized growth was 1

// sample CCCCCCCCCCCCCCCC[N+](C)(C)C , its normalized growth was 0.0582

// sample COc1ccc2cc([C@H](C)C(=O)O)ccc2c1 , its normalized growth was 0.978
